Data credit: patent US7244753B2

Biological target: Human COX-2 (Homo sapiens)
Construct: Human blood (≈50 mL) from male or female donors who had not received any aspirin or NSAIDs for 14 days was collected; endogenous in cells; host or cells: human whole blood from donors, heparinised, COX-2 induced with E. coli LPS
Sequence (P35354 18-604): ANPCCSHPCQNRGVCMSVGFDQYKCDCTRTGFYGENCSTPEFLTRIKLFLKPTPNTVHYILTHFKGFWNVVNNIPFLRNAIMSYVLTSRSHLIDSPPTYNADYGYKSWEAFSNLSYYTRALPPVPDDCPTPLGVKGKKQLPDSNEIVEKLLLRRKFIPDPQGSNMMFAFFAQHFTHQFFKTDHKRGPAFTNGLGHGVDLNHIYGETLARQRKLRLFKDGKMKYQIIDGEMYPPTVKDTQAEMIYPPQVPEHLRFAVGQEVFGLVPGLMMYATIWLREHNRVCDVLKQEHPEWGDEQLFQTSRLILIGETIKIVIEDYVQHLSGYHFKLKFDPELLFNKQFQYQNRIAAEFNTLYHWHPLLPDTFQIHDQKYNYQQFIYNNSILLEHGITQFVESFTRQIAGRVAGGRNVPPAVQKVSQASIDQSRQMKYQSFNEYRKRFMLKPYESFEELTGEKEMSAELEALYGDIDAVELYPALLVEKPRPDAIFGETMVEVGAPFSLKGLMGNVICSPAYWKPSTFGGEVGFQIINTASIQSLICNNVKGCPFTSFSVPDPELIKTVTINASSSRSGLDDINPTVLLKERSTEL
Experiment: COX-2 enzyme activity in human whole blood (LPS-induced, thromboxane B2 EIA)
Assay type: cell-based
Conditions: 1 μM test compound
List of inhibition at 1 µM values.
# unit: % | format: bare number

# molecule, unit_descriptor, inhibition at 1 µM
measured = [
    ("CS(=O)(=O)c1ccc(-c2ncccc2C(=O)c2ccccn2)cc1 [Example 11b]", "%", 0),
    ("CS(=O)(=O)c1ccc(-c2cc(CO)nn2Cc2ccccc2)cc1", "%", 10),
]

Fill blank: measured inhibition at 1 µM of the molecule CS(=O)(=O)c1ccc(-c2cc(COCCO[N+](=O)[O-])nn2CC2CCCCC2)cc1 is ____.
20
